- ASSAY_SYSTEM: PRS (prolyl-tRNA synthetase) (Homo sapiens)
- Construct: the portion corresponding to PRS in cDNA of EPRS was subcloned; made in house
- Sequence (P07814 1007-1512 limits assumed): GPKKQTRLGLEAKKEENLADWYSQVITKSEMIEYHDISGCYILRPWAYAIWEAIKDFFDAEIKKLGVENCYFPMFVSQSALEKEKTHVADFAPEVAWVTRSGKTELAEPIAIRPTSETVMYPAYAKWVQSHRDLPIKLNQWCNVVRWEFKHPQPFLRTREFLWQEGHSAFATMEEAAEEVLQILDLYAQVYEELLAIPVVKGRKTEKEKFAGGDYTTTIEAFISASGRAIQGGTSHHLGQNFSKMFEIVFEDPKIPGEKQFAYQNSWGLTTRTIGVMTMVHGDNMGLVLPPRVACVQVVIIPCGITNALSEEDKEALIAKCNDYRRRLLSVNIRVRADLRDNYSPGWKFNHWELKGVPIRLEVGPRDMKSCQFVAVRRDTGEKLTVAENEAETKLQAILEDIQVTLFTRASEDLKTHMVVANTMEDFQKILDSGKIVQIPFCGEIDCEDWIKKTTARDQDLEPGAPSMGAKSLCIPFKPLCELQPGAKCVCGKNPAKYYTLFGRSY
- METHOD_SUMMARY: In vitro PRS enzyme activity inhibition experiment ([3H]proline, liquid scintillation)
- Format: biochemical
- CONDITIONS: purified PRS protein subcloned from EPRS cDNA; 37° C., 5 to 10 minutes; read-out: PRS IC50
pIC50: −log10 of the molar value. Counter-ions that a name gives are not always drawn.
MEASURED_ATTRIBUTE: pIC50

Task item: Can you share its pIC50? I mean this compound: Cc1c(Cl)ccc2c1ncn2CC(O)C[C@H]1NCCC[C@@H]1O (stereo partly drawn)
Reply: < 6.30

Task item: Can you share its pIC50? I mean this compound: Cc1nc2ncccc2n1CC(=O)C[C@H]1NCCC[C@@H]1O
Reply: < 6.30

Task item: Can you share its pIC50? I mean this compound: Cc1nc2cc(Cl)c(Cl)cc2n1CC(=O)C[C@H]1NCCC[C@@H]1O
Reply: > 7.00

Task item: Can you share its pIC50? I mean this compound: O/N=C(/C[C@H]1NCCC[C@@H]1O)Cn1cnc2cc(Cl)c(Cl)cc21
Reply: < 6.30

Task item: Can you share its pIC50? I mean this compound: O=C(C[C@H]1NCCC[C@@H]1O)Cn1c(CO)nc2cc(OC(F)(F)F)ccc21
Reply: < 6.30

Task item: Can you share its pIC50? I mean this compound: O=C(C[C@H]1NCCC[C@@H]1O)Cn1cnc2ccccc21
Reply: < 6.30

Task item: Can you share its pIC50? I mean this compound: O=C(C[C@H]1NCCC[C@@H]1O)Cn1c(CO)nc2ncccc21
Reply: 6.30 to 7.00

Task item: Can you share its pIC50? I mean this compound: COCc1nc2cc(Cl)c(Cl)cc2n1CC(=O)C[C@H]1NCCC[C@@H]1O
Reply: < 6.30

Task item: Can you share its pIC50? I mean this compound: O=C(C[C@H]1NCCC[C@@H]1O)Cn1cnc2cc(C(=O)O)ncc21 [Example 43, hydrochloride salt]
Reply: < 6.30

====

- ASSAY_SYSTEM: PRS (prolyl-tRNA synthetase) (Homo sapiens)
- Construct: the portion corresponding to PRS in cDNA of EPRS was subcloned; made in house
- METHOD_SUMMARY: In vitro PRS enzyme activity inhibition experiment ([3H]proline, liquid scintillation)
- Format: biochemical
- CONDITIONS: purified PRS protein subcloned from EPRS cDNA; 37° C., 5 to 10 minutes; read-out: PRS IC50
pIC50: −log10 of the molar value.
MEASURED_ATTRIBUTE: pIC50

Task item: Can you share its pIC50? I mean this compound: O=C(C[C@H]1NCCC[C@@H]1O)Cn1cnc2c(Cl)c(Br)ccc21
Reply: > 7.00

Task item: Can you share its pIC50? I mean this compound: O=C(C[C@H]1NCCC[C@@H]1O)Cn1c(CO)nc2cc(Cl)c(Cl)cc21
Reply: > 7.00

Task item: Can you share its pIC50? I mean this compound: OCc1nc2cc(Cl)c(Cl)cc2n1CC(O)C[C@H]1NCCC[C@@H]1O (stereo partly drawn)
Reply: 6.30 to 7.00

Task item: Can you share its pIC50? I mean this compound: O=C(C[C@H]1NCCC[C@@H]1O)Cn1ccc2ccc(Br)nc21
Reply: < 6.30

Task item: Can you share its pIC50? I mean this compound: O=C(C[C@H]1NCCC[C@@H]1O)Cn1ccc2ncc(Br)cc21
Reply: < 6.30

Task item: Can you share its pIC50? I mean this compound: O=C(C[C@H]1NCCC[C@@H]1O)Cn1cnc2ccc(C(F)(F)F)nc21
Reply: > 7.00

Task item: Can you share its pIC50? I mean this compound: OC(C[C@H]1NCCC[C@@H]1O)Cn1cnc2c(Cl)c(Br)cnc21 (stereo partly drawn)
Reply: 6.30 to 7.00

Task item: Can you share its pIC50? I mean this compound: OCc1nc2cc(Cl)c(Cl)cc2n1C/C(C[C@H]1NCCC[C@@H]1O)=N/O
Reply: < 6.30

Task item: Can you share its pIC50? I mean this compound: Cc1cc(Cl)cc2c1ncn2CC(=O)C[C@H]1NCCC[C@@H]1O
Reply: > 7.00

====

- ASSAY_SYSTEM: PRS (prolyl-tRNA synthetase) (Homo sapiens, UniProt P07814)
- Construct: the portion corresponding to PRS in cDNA of EPRS was subcloned; made in house
- Sequence (P07814 1007-1512 limits assumed): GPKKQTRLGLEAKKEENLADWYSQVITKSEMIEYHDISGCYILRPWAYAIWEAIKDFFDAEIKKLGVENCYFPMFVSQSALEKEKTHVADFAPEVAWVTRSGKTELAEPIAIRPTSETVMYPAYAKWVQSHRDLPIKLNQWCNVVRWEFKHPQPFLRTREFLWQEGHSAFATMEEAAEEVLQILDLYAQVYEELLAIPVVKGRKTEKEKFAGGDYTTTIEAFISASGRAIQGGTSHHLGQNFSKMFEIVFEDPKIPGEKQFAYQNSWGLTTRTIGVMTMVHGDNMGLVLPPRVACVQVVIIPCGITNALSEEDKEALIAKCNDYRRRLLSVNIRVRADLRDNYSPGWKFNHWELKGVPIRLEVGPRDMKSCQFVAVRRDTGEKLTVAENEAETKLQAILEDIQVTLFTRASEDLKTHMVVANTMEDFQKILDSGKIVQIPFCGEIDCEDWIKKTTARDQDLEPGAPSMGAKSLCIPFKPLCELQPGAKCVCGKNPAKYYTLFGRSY
- METHOD_SUMMARY: In vitro PRS enzyme activity inhibition experiment ([3H]proline, liquid scintillation)
- Assay type: biochemical
- CONDITIONS: purified PRS protein subcloned from EPRS cDNA; 37° C., 5 to 10 minutes; read-out: PRS IC50
MEASURED_ATTRIBUTE: IC50

Task item: Can you share its IC50? I mean this compound: O=C(C[C@H]1NCCC[C@@H]1O)Cn1c(CO)nc2ccccc21
Reply: < 0.1 µM

Task item: Can you share its IC50? I mean this compound: N#Cc1cnc2c(c1)ncn2CC(=O)C[C@H]1NCCC[C@@H]1O
Reply: 0.1 to 0.5 µM

Task item: Can you share its IC50? I mean this compound: OC(C[C@H]1NCCC[C@@H]1O)Cn1cnc2c(C(F)(F)F)c(Br)ccc21 (stereo partly shown)
Reply: > 0.5 µM

Task item: Can you share its IC50? I mean this compound: CC(O)(C[C@H]1NCCC[C@@H]1O)Cn1cnc2cc(Cl)c(Cl)cc21 (stereo partly shown)
Reply: > 0.5 µM

Task item: Can you share its IC50? I mean this compound: Cc1c(Cl)ccc2c1ncn2CC(=O)C[C@H]1NCCC[C@@H]1O
Reply: < 0.1 µM

Task item: Can you share its IC50? I mean this compound: O=C(C[C@H]1NCCC[C@@H]1O)Cn1cnc2cccnc21
Reply: 0.1 to 0.5 µM

Task item: Can you share its IC50? I mean this compound: CCc1nc2cc(Cl)c(Cl)cc2n1CC(=O)C[C@H]1NCCC[C@@H]1O
Reply: > 0.5 µM

Task item: Can you share its IC50? I mean this compound: Cc1ccc2c(ncn2CC(O)C[C@H]2NCCC[C@@H]2O)c1Br (stereo partly shown)
Reply: > 0.5 µM

Task item: Can you share its IC50? I mean this compound: O=C(C[C@H]1NCCC[C@@H]1O)Cn1cnc2nc(Br)ccc21
Reply: > 0.5 µM

Task item: Can you share its IC50? I mean this compound: O=C(C[C@H]1NCCC[C@@H]1O)Cn1c(CO)nc2ccc(C(F)(F)F)cc21
Reply: < 0.1 µM

Task item: Can you share its IC50? I mean this compound: O=C(C[C@H]1NCCC[C@@H]1O)Cn1ccc2ccnc(Cl)c21
Reply: 0.1 to 0.5 µM

Task item: Can you share its IC50? I mean this compound: Cc1c(F)ccc2c1ncn2CC(=O)C[C@H]1NCCC[C@@H]1O
Reply: < 0.1 µM

Task item: Can you share its IC50? I mean this compound: O=C(C[C@H]1NCCC[C@@H]1O)Cn1cnc2cc(C(F)(F)F)ccc21
Reply: 0.1 to 0.5 µM

Task item: Can you share its IC50? I mean this compound: O=C(C[C@H]1NCCC[C@@H]1O)Cn1c(CO)nc2cccc(OC(F)(F)F)c21
Reply: > 0.5 µM

Task item: Can you share its IC50? I mean this compound: O=C(C[C@H]1NCCC[C@@H]1O)Cn1cnc2ccc(C(F)(F)F)cc21
Reply: < 0.1 µM

Task item: Can you share its IC50? I mean this compound: O=C(C[C@H]1NCCC[C@@H]1O)Cn1cnc2c(Cl)c(F)ccc21
Reply: 0.1 to 0.5 µM

Task item: Can you share its IC50? I mean this compound: Cc1ccc2c(ncn2CC(=O)C[C@H]2NCCC[C@@H]2O)c1C
Reply: < 0.1 µM

Task item: Can you share its IC50? I mean this compound: O=C(C[C@H]1NCCC[C@@H]1O)Cn1nnc2cc(Cl)ccc21
Reply: 0.1 to 0.5 µM

Task item: Can you share its IC50? I mean this compound: COC(C[C@H]1NCCC[C@@H]1O)Cn1cnc2cc(Cl)c(Cl)cc21 (stereo partly shown)
Reply: > 0.5 µM
